Taken from ChEMBL document CHEMBL5291721.

AC50 for assorted molecules
Target: Progesterone receptor (Homo sapiens); also: assay procedure not described here
Sequence (P06401 whole entry): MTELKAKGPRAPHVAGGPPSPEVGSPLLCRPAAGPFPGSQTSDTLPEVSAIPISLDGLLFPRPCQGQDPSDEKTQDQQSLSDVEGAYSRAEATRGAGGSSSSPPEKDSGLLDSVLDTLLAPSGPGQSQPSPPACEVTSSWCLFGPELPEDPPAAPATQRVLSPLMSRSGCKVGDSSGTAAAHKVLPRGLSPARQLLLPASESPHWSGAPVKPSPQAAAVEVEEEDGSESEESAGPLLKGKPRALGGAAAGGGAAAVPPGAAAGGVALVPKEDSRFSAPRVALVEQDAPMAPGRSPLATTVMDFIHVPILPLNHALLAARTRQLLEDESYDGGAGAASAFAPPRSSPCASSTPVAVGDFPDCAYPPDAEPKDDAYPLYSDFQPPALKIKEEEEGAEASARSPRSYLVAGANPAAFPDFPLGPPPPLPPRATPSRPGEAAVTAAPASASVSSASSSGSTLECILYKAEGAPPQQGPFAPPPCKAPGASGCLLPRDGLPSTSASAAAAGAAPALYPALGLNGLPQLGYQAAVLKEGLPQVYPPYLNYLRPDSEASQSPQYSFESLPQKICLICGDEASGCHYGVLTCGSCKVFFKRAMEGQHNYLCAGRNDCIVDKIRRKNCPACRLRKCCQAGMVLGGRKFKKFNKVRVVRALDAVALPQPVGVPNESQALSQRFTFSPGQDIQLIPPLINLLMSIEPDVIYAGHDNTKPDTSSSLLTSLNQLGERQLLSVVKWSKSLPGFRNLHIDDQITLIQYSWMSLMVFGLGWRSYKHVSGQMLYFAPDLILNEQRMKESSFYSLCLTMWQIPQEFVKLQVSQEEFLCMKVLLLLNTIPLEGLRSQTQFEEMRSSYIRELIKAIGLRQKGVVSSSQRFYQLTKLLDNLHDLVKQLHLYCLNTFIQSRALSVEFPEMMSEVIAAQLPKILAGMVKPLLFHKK

Prompt: May I ask what AC50 has been recorded for Cc1ccc(Cl)c(Nc2ccccc2C(=O)O)c1Cl [MECLOFENAMIC ACID] ?
Completion: > 30 µM

Prompt: May I ask what AC50 has been recorded for CCOC1O[C@H]([C@@H](COCc2ccccc2)OCc2ccccc2)[C@H](OCc2ccccc2)[C@H]1O (some centres undefined) [TRIBENOSIDE] ?
Completion: > 30 µM

Prompt: May I ask what AC50 has been recorded for CN1CCC(N(Cc2cccs2)c2ccccc2)CC1 [THENALIDINE] ?
Completion: > 30 µM

Prompt: May I ask what AC50 has been recorded for C[C@@H]1CN(c2c(F)c(N)c3c(=O)c(C(=O)O)cn(C4CC4)c3c2F)C[C@H](C)N1 [SPARFLOXACIN] ?
Completion: > 30 µM

Prompt: May I ask what AC50 has been recorded for "Cc1ccc2c([nH]c(=O)c3c(=O)cc(C(=O)OCCC(C)C)oc32)c1C" ?
Completion: > 30 µM

Prompt: May I ask what AC50 has been recorded for CC(C)=CCC/C(C)=C/CC/C(C)=C/CC/C(C)=C/CC1=C(C)C(=O)c2ccccc2C1=O [MENATETRENONE] ?
Completion: 13.5 µM

Prompt: May I ask what AC50 has been recorded for CN1CCCC(CC2c3ccccc3Sc3ccccc32)C1 (centres undefined) [METHIXENE] ?
Completion: > 30 µM

Prompt: May I ask what AC50 has been recorded for O=C(OOC(=O)c1ccccc1)c1ccccc1 [BENZOYL PEROXIDE] ?
Completion: > 30 µM

Prompt: May I ask what AC50 has been recorded for CC(C)Cc1ccc(C(C)C(=O)OCc2ccccn2)cc1 (centres undefined) [IBUPROFEN PICONOL] ?
Completion: 19.1 µM

Prompt: May I ask what AC50 has been recorded for CC(C)(Oc1ccc(C(=O)c2ccc(Cl)cc2)cc1)C(=O)O [FENOFIBRIC ACID] ?
Completion: > 30 µM

Prompt: May I ask what AC50 has been recorded for CCCCCCO[C@@H](C)c1cccc(-c2csc(NC(=O)c3cc(Cl)c(/C=C(\C)C(=O)O)c(Cl)c3)n2)c1OC [LUSUTROMBOPAG] ?
Completion: 9.34 µM
